# Tested on: HCC-78
# ASSAY DETAILS: relative viability (nuclei count vs DMSO), 5 days (fraction); higher = more cells survive
# TEST PARAMETERS: first compound 2 µM
// returns No unless relative viability is strictly below 0.7, in which case Yes

# count of solved cases: 4
Cc1csc(=NC2CCCCC2)n1/N=C/c1ccc(O)c(O)c1O [MIM1] + Cc1cc(Nc2cc(N3CCN(C)CC3)nc(Sc3ccc(NC(=O)C4CC4)cc3)n2)n[nH]1 [Tozasertib] (partner 0.1 µM)	Yes
CN1CCN(CCOc2cc(OC3CCOCC3)c3c(Nc4c(Cl)ccc5c4OCO5)ncnc3c2)CC1 [Saracatinib] + N=C(N)NC(=N)NCCc1ccccc1 [Phenformin] (partner 250 µM)	Yes
CN1CCN(CCOc2cc(OC3CCOCC3)c3c(Nc4c(Cl)ccc5c4OCO5)ncnc3c2)CC1 [Saracatinib] + Cc1cc(Nc2cc(N3CCN(C)CC3)nc(Sc3ccc(NC(=O)C4CC4)cc3)n2)n[nH]1 [Tozasertib] (partner 0.1 µM)	Yes
Cc1csc(=NC2CCCCC2)n1/N=C/c1ccc(O)c(O)c1O [MIM1] + NC(=O)Nc1cc(-c2cccc(F)c2)sc1C(=O)N[C@H]1CCCNC1 [AZD7762] (partner 0.2 µM)	Yes

Query molecule follows.
INPUT: Say whether its relative viability is strictly beneath 0.7. Entry: Cc1csc(=NC2CCCCC2)n1/N=C/c1ccc(O)c(O)c1O [MIM1] + O=C(c1cc(Cc2n[nH]c(=O)c3ccccc23)ccc1F)N1CCN(C(=O)C2CC2)CC1 [Olaparib] (partner 8 µM)
OUTPUT: No

* * *

# System: NCI-H650
# ASSAY DETAILS: relative viability (nuclei count vs DMSO), 5 days (fraction); higher = more cells survive
# TEST PARAMETERS: first compound 2 µM
# relative viability values compiled below
Number only, please.

CN1CCN(CCOc2cc(OC3CCOCC3)c3c(Nc4c(Cl)ccc5c4OCO5)ncnc3c2)CC1 [Saracatinib] + Cc1nc(NC(=O)N2CCC[C@H]2C(N)=O)sc1-c1ccnc(C(C)(C)C(F)(F)F)c1 [Alpelisib] (partner 2 µM)	1.13
CN1CCN(CCOc2cc(OC3CCOCC3)c3c(Nc4c(Cl)ccc5c4OCO5)ncnc3c2)CC1 [Saracatinib] + COc1cc2c(Oc3ccc(NC(=O)C4(C(=O)Nc5ccc(F)cc5)CC4)cc3F)ccnc2cc1OCCCN1CCOCC1 [Foretinib] (partner 0.25 µM)	1.03
CN1CCN(CCOc2cc(OC3CCOCC3)c3c(Nc4c(Cl)ccc5c4OCO5)ncnc3c2)CC1 [Saracatinib] + CC(C)C[C@H](NC(=O)[C@H](Cc1ccccc1)NC(=O)c1cnccn1)B(O)O [Bortezomib] (partner 0.002 µM)	0.799

Now look at this entry.
INPUT: Need relative viability, item CN1CCN(CCOc2cc(OC3CCOCC3)c3c(Nc4c(Cl)ccc5c4OCO5)ncnc3c2)CC1 [Saracatinib] + Nc1nc2[nH]cc(CCc3ccc(C(=O)N[C@@H](CCC(=O)O)C(=O)O)cc3)c2c(=O)[nH]1 [Pemetrexed] (partner 0.2 µM)
OUTPUT: 0.874

* * *

# System: A-427
# ASSAY DETAILS: relative viability (nuclei count vs DMSO), 5 days (fraction); higher = more cells survive
# TEST PARAMETERS: first compound 0.1 µM
MEASUREMENT LABEL: relative viability
Number only, please.

Recorded results for 3 molecules are shown here.
Cc1cn(-c2cc(NC(=O)c3ccc(C)c(Nc4nccc(-c5cccnc5)n4)c3)cc(C(F)(F)F)c2)cn1 [Nilotinib] + CCNC(=O)c1noc(-c2cc(C(C)C)c(O)cc2O)c1-c1ccc(CN2CCOCC2)cc1 [Luminespib] (partner 0.01 µM)	0.336
Cc1cn(-c2cc(NC(=O)c3ccc(C)c(Nc4nccc(-c5cccnc5)n4)c3)cc(C(F)(F)F)c2)cn1 [Nilotinib] + Cc1nc(NC(=O)N2CCC[C@H]2C(N)=O)sc1-c1ccnc(C(C)(C)C(F)(F)F)c1 [Alpelisib] (partner 2 µM)	0.808
Cc1cn(-c2cc(NC(=O)c3ccc(C)c(Nc4nccc(-c5cccnc5)n4)c3)cc(C(F)(F)F)c2)cn1 [Nilotinib] + O=C(CCCCCCC(=O)Nc1ccccc1)NO [Vorinostat] (partner 1 µM)	0.775

INPUT: Need relative viability, item Cc1cn(-c2cc(NC(=O)c3ccc(C)c(Nc4nccc(-c5cccnc5)n4)c3)cc(C(F)(F)F)c2)cn1 [Nilotinib] + Nc1nc2[nH]cc(CCc3ccc(C(=O)N[C@@H](CCC(=O)O)C(=O)O)cc3)c2c(=O)[nH]1 [Pemetrexed] (partner 0.2 µM)
OUTPUT: 0.852
